Hi there, I'd appreciate the recorded Kd for every entry that follows.
Target: T1, Human CD27 ECD truncated (ECD 1-121, cleavage site, His6) (human)
T1 construct: also called human CD27 ECD with His Tag; CD27-His
T1 chain: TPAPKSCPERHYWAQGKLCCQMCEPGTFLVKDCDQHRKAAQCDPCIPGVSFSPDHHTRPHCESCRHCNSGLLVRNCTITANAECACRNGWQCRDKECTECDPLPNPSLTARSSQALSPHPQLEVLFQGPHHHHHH
Assay: ProteOn SPR, culture supernatants

Some solved cases for reference:
BINDER: M154 (antibody, human IgG4, V domains shown, also called H25,L221) VH: QVQLVQSGAEVKKPGASVKVSCKASGYAFSSSWMNWVRQAPGQGLEWMGRIYPGDGDTNYNGKFKGRVTMTRDTSTSTVYMELSSLRSEDTAVYYCARSDYYGDYGFAYWGQGTLVTVSS VL: DIQMTQSPSSLSASVGDRVTITCKASQSVDYFRTSFMNWYQQKPGKAPKLLIYAASNLESGVPSRFSGSGSGTDFTLTISSLQPEDFATYYCQQSNEDPYTFGQGTKVEIK
Kd: 1.56 nM
//
BINDER: M155 (antibody, human IgG4, V domains shown, also called H25,L217) VH: QVQLVQSGAEVKKPGASVKVSCKASGYAFSSSWMNWVRQAPGQGLEWMGRIYPGDGDTNYNGKFKGRVTMTRDTSTSTVYMELSSLRSEDTAVYYCARSDYYGDYGFAYWGQGTLVTVSS VL: DIQMTQSPSSLSASVGDRVTITCKASQSVDYAHESFMNWYQQKPGKAPKLLIYAASNLESGVPSRFSGSGSGTDFTLTISSLQPEDFATYYCQQSNEDPYTFGQGTKVEIK
Kd: 0.37 nM

Now examine the next entry.
Would you mind telling me what Kd value was observed for M162 (antibody, human IgG4, V domains shown, also called H196,L224) VH: QVQLVQSGAEVKKPGASVKVSCKASGYAFSSSWMNWVRQAPGQGLEWMGRIYSGDGDTNYNGKFKGRVTMTRDTSTSTVYMELSSLRSEDTAVYYCARSDYYGDYGFAYWGQGTLVTVSS VL: DIQMTQSPSSLSASVGDRVAITCKASQSVDYYNSSFMNWYQQKPGKAPKLLIYAASNLESGVPSRFSGSGSGTDFTLTISSLQPEDFATYYCQQSNEDPYTFGQGTKVEIK ? 0.43 nM

Origin of the recorded values: patent US20130243795A1
